Each record here notes measured pIC50.
target: T1, SARS-CoV-2 스파이크 S1-mFc (SARS-CoV-2, UniProt P0DTC2 16-685); experiment: competition ELISA: S1-mFc on coated ACE2-His
T1 construct: range 16-685
pIC50: −log10 of the molar value.
Result type: pIC50

{"Binder": "SA4079 (antibody, V domains shown) VH: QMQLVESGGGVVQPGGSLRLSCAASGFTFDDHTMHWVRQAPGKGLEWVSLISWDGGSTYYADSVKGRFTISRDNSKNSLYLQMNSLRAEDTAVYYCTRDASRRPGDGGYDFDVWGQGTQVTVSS VL: QAVVTQEPSLTVSPGGTATLTCGSSTGTVTRGHWPYWFQQKPGQAPRTLIYDTDTKHSWTPARFSGSLLGGKAALTLSGAQPEDEADYYCLLSYSDSRVFGTGTKVTVL", "Test value": 8.57}
{"Binder": "SA4114 (antibody, V domains shown) VH: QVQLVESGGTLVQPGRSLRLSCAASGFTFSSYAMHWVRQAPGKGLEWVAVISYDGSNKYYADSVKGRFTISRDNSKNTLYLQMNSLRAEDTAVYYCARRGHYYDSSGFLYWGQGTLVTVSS VL: DIQMTQSPSSLSASVGDRVTITCRAGQSIDNYLNWYQQKPGKAPKLLIYAASTLHSGVPSRFSGSGSGTDFTLTISSLQPDDFATYYCQQSYSIPRTFGQGTKLEIK", "Test value": 8.92}
{"Binder": "SA3827 (antibody, V domains shown) VH: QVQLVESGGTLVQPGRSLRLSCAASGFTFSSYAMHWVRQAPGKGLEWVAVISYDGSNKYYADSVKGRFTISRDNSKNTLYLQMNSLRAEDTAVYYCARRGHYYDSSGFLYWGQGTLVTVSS VL: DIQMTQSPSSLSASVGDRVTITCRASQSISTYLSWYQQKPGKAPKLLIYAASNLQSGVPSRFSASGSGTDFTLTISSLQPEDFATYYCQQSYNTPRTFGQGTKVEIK", "Test value": 9.05}
{"Binder": "SA3755 (antibody, V domains shown) VH: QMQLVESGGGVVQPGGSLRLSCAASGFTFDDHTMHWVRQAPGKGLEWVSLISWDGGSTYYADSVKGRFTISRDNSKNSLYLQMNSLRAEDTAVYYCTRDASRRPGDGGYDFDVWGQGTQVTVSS VL: QAVVTQEPSLTVSPGGTVTLTCGSSTGTVTRGHWPYWFQQKPGQAPRTLIYDTDNKHSWTPARFSGSLLGGKAALTLSGAQPEDEADYYCLLSYSDSRVFGTGTKVTVL", "Test value": 8.33}
{"Binder": "SA3838 (antibody, V domains shown) VH: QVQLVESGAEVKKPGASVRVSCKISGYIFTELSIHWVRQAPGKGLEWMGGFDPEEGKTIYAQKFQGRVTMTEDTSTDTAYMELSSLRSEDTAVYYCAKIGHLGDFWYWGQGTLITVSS VL: QSALTQPASVSGSPGQSITISCTGTTSDIGSYDYVSWYQQHPGKAPKLIIYGVTRRPSGVSNRFSGSKSGNTASLTISRLLTEDEAEYYCATYTSSATYVFGTGTKVTVL", "Test value": 8.65}
